Experiment: Therapeutic index, ratio of LD10 for BDF1 mouse to ED50 for mouse L1210 cells allografted in ip dosed BDF1 mouse
Type: organism-based
Conditions: in vivo, read-out: TI
selectivity ratio of 0.5 or higher: YES. Under 0.5: NO.

Can CO[C@H]1CC[C@@H](NC(=O)N(CCCl)N=O)CC1 be said to have selectivity ratio at or above 0.5? YES

Can CCOC(=O)[C@@H]1CCC[C@H](NC(=O)N(CCCl)N=O)C1 (relative stereo) be said to have selectivity ratio at or above 0.5? YES

Can C[C@H]1CC[C@H](NC(=O)N(CCCl)N=O)CC1 be said to have selectivity ratio at or above 0.5? NO

Can CCOC(=O)[C@H]1CC[C@H](NC(=O)N(CCCl)N=O)CC1 be said to have selectivity ratio at or above 0.5? YES
